- assay: Cytotoxicity upon MRC-5 cells (diploid embryonic lung cell line) at 3.1 uM
- Type: cell-based, MRC5
- assayContext: human
experimentalReadout: cytotoxicity at 3.1 µM (%)
Dear colleague, please return just the value in %, with no unit written.

Example cases with answers are listed next.
Form: compound = CC1CCN(CC(=O)Nc2cc(CO)cc(Nc3ccnc4cc(Cl)ccc34)c2)CC1 ; cytotoxicity at 3.1 µM = 0

The compound listed as CN1CCN(CC(=O)Nc2cc(CO)cc(Nc3ccnc4cc(Cl)ccc34)c2)CC1 has a reported cytotoxicity at 3.1 µM of 0

response.value for O=C(Nc1cc(CO)cc(Nc2ccnc3cc(Cl)ccc23)c1)c1ccccc1 (field: cytotoxicity at 3.1 µM) = 0

# compound CC(C)(C)NCC(=O)Nc1cc(CO)cc(Nc2ccnc3cc(Cl)ccc23)c1 ; its cytotoxicity at 3.1 µM = 0

Looking up CC1CCN(CCC(=O)Nc2cc(CO)cc(Nc3ccnc4cc(Cl)ccc34)c2)CC1 , I see its cytotoxicity at 3.1 µM listed as 0

Per the record, O=C(CO)Nc1cc(CO)cc(Nc2ccnc3cc(Cl)ccc23)c1 has cytotoxicity at 3.1 µM of 0

# compound O=CNc1cc(CO)cc(Nc2ccnc3cc(Cl)ccc23)c1 ; its cytotoxicity at 3.1 µM = 0

cytotoxicity at 3.1 µM reading for O=C(CN1CCSC1)Nc1cc(CO)cc(Nc2ccnc3cc(Cl)ccc23)c1 : 0

New cases:
Record CCN(CC)CC(=O)Nc1cc(CO)cc(Nc2ccnc3cc(Cl)ccc23)c1 . Reported cytotoxicity at 3.1 µM: 0

Record summary for O=C(CN1CCCCC1)Nc1cc(CO)cc(Nc2ccnc3cc(Cl)ccc23)c1 : reported cytotoxicity at 3.1 µM = 0

Lab note: measured cytotoxicity at 3.1 µM of Nc1cc(CO)cc(Nc2ccnc3cc(Cl)ccc23)c1 was 0

---

Items are presented alongside their recorded cytotoxicity at 32 µM.
- assay: Cytotoxicity upon MRC-5 cells (diploid embryonic lung cell line) at 32 uM
- Format: cell-based, MRC5
- assayContext: human
Note: unit % is implicit; provide only the numeric part.

For orientation, consider the following solved cases.
// sample O=C(CN1CCCCC1)Nc1cc(CNCCN2CCCC2)cc(Nc2ccnc3cc(Cl)ccc23)c1 , its cytotoxicity at 32 µM was 100

Documented cytotoxicity at 32 µM of O=C(CN1CCCCC1)Nc1cc(CN2CCN(Cc3ccccc3)CC2)cc(Nc2ccnc3cc(Cl)ccc23)c1 : 100

Entry O=C(CN1CCCCC1)Nc1cc(CN2CCCC2)cc(Nc2ccnc3cc(Cl)ccc23)c1 — recorded cytotoxicity at 32 µM = 100

cytotoxicity at 32 µM for CC(C)(C)NCc1cc(NC(=O)CN2CCCCC2)cc(Nc2ccnc3cc(Cl)ccc23)c1 is 100

For reference, reported cytotoxicity at 32 µM for CN1CCN(Cc2cc(NC(=O)CN3CCCCC3)cc(Nc3ccnc4cc(Cl)ccc34)c2)CC1 stands at 83

Next:
Data point: CN(C)CCN(C)Cc1cc(NC(=O)CN2CCCCC2)cc(Nc2ccnc3cc(Cl)ccc23)c1 ; cytotoxicity at 32 µM = 100

Please fill in: cytotoxicity at 32 µM reported for O=C(CN1CCCCC1)Nc1cc(CN2CCCCC2)cc(Nc2ccnc3cc(Cl)ccc23)c1 = 100

Record summary for O=C(CN1CCCCC1)Nc1cc(CN2CCC(O)CC2)cc(Nc2ccnc3cc(Cl)ccc23)c1 : reported cytotoxicity at 32 µM = 100

Given item O=C(CN1CCCCC1)Nc1cc(CN2CCN(Cc3ccc(Cl)cc3)CC2)cc(Nc2ccnc3cc(Cl)ccc23)c1 , the value recorded as its cytotoxicity at 32 µM is 100

---

- assay: Cytotoxicity upon MRC-5 cells (diploid embryonic lung cell line) at 8 uM
- Assay type: cell-based, MRC5
- assayContext: human
experimentalReadout: cytotoxicity at 8 µM
Field: value (include unit after the number)

cytotoxicity at 8 µM for CN(C)CCNCc1cc(NC(=O)CN2CCCCC2)cc(Nc2ccnc3cc(Cl)ccc23)c1 is 15%

Documented cytotoxicity at 8 µM of O=C(CN1CCCCC1)Nc1cc(CNCCN2CCCC2)cc(Nc2ccnc3cc(Cl)ccc23)c1 : 100%

// sample N#Cc1ccc(CN2CCN(Cc3cc(NC(=O)CN4CCCCC4)cc(Nc4ccnc5cc(Cl)ccc45)c3)CC2)cc1 , its cytotoxicity at 8 µM was 100%

Per the records, this compound ( O=C(CN1CCCCC1)Nc1cc(CN2CCN(C(c3ccccc3)c3ccccc3)CC2)cc(Nc2ccnc3cc(Cl)ccc23)c1 ) has cytotoxicity at 8 µM equal to 97%

Looking up O=C(CN1CCCCC1)Nc1cc(CN2CCN(Cc3ccccc3)CC2)cc(Nc2ccnc3cc(Cl)ccc23)c1 , I found its cytotoxicity at 8 µM recorded as 100%

The measured cytotoxicity at 8 µM associated with CCN(CC)Cc1cc(NC(=O)CN2CCCCC2)cc(Nc2ccnc3cc(Cl)ccc23)c1 reads 100%

---
// cytotoxicity at 8 µM value for COc1ccc(CNCc2cc(NC(=O)CN3CCCCC3)cc(Nc3ccnc4cc(Cl)ccc34)c2)cc1 : 100%

The recorded cytotoxicity at 8 µM for entry O=C(CN1CCCCC1)Nc1cc(CN2CCCC2)cc(Nc2ccnc3cc(Cl)ccc23)c1 equals 100%

According to the records, this compound O=C(CN1CCCCC1)Nc1cc(CN2CCN(CCO)CC2)cc(Nc2ccnc3cc(Cl)ccc23)c1 displays cytotoxicity at 8 µM of 100%

---

- assay: Cytotoxicity upon MRC-5 cells (diploid embryonic lung cell line) at 32 uM
- Format: cell-based, MRC5
- assayContext: human
Quick reference for cytotoxicity at 32 µM among some molecules
Answer in %, number only, no unit symbol.

Please review the following examples before continuing.
# cytotoxicity at 32 µM (molecule: O=C(CN1CCCCC1)Nc1cc(CN2CCN(c3ccccc3)CC2)cc(Nc2ccnc3cc(Cl)ccc23)c1 ) is 100

GET /value?item= O=C(CN1CCCCC1)Nc1cc(CN2CCN(Cc3ccc4c(c3)OCO4)CC2)cc(Nc2ccnc3cc(Cl)ccc23)c1 &field=cytotoxicity at 32 µM returns 100

cytotoxicity at 32 µM in this record for COc1ccc(CNCc2cc(NC(=O)CN3CCCCC3)cc(Nc3ccnc4cc(Cl)ccc34)c2)cc1 : 100

Further cases:
For reference, reported cytotoxicity at 32 µM for O=C(CN1CCCCC1)Nc1cc(CNCc2ccc(C(F)(F)F)cc2)cc(Nc2ccnc3cc(Cl)ccc23)c1 stands at 100

Lab note: measured cytotoxicity at 32 µM of O=Cc1cc(NC(=O)CN2CCCCC2)cc(Nc2ccnc3cc(Cl)ccc23)c1 was 0

Per the records, this molecule ( O=C(CN1CCCCC1)Nc1cc(CNCc2ccc(Cl)cc2)cc(Nc2ccnc3cc(Cl)ccc23)c1 ) has cytotoxicity at 32 µM equal to 100

The molecule listed as CCN(CC)Cc1cc(NC(=O)CN2CCCCC2)cc(Nc2ccnc3cc(Cl)ccc23)c1 shows cytotoxicity at 32 µM equal to 100

Looking up CN(C)CCCNCc1cc(NC(=O)CN2CCCCC2)cc(Nc2ccnc3cc(Cl)ccc23)c1 , I found its cytotoxicity at 32 µM recorded as 78

molecule O=C(CN1CCCCC1)Nc1cc(CNc2ccccc2)cc(Nc2ccnc3cc(Cl)ccc23)c1 , cytotoxicity at 32 µM observed: 100

---

- assay: Cytotoxicity upon MRC-5 cells (diploid embryonic lung cell line) at 8 uM concentration
- Format: cell-based, MRC5
- assayContext: human
cytotoxicity at 8 µM by entry:
Lab book: enter the figure in %, no units written.

Lookup result for CCN(CC)Cc1cc(Nc2ccnc3cc(Cl)ccc23)ccc1O.Cl ; measured cytotoxicity at 8 µM: 0

Now let's try a different one.
Lab book: cytotoxicity at 8 µM of CCN(CC)CCCC(C)Nc1ccnc2cc(Cl)ccc12 (configuration not stated) [CHLOROQUINE] noted as 0

---

Recorded cytotoxicity at 12.5 µM, one value per entry.
- assay: Cytotoxicity upon MRC-5 cells (diploid embryonic lung cell line) at 12.5 uM
- Type: cell-based, MRC5
- assayContext: human
Your answer is read as %, so omit the unit and give the number.

cytotoxicity at 12.5 µM measured on O=C(CN1CCSC1)Nc1cc(CO)cc(Nc2ccnc3cc(Cl)ccc23)c1 = 0

Lab book: cytotoxicity at 12.5 µM of O=C(CNCc1ccccc1)Nc1cc(CO)cc(Nc2ccnc3cc(Cl)ccc23)c1 noted as 0

Please examine the following record next.
response.value for CC1CCN(CC(=O)Nc2cc(CO)cc(Nc3ccnc4cc(Cl)ccc34)c2)CC1 (field: cytotoxicity at 12.5 µM) = 100

---

- assay: Cytotoxicity upon MRC-5 cells (diploid embryonic lung cell line) at 1 uM
- Type: cell-based, MRC5
- assayContext: human
Reported cytotoxicity at 1 µM values for the following compounds.
Give the value, in units of %, as a plain number.

These recorded examples may help you get a feel for the data.
# compound O=C(CN1CCCCC1)Nc1cc(CNc2ccccc2)cc(Nc2ccnc3cc(Cl)ccc23)c1 ; its cytotoxicity at 1 µM = 0

Entry under test: CN1CCN(Cc2cc(NC(=O)CN3CCCCC3)cc(Nc3ccnc4cc(Cl)ccc34)c2)CC1 . Its cytotoxicity at 1 µM was 0

So for CN(C)CCCNCc1cc(NC(=O)CN2CCCCC2)cc(Nc2ccnc3cc(Cl)ccc23)c1 , the logged cytotoxicity at 1 µM turned out to be 0

Query CCN(CC)c1ccc(CN2CCN(Cc3cc(NC(=O)CN4CCCCC4)cc(Nc4ccnc5cc(Cl)ccc45)c3)CC2)cc1 yields cytotoxicity at 1 µM of 100

O=C(CN1CCCCC1)Nc1cc(CN2CCCCC2)cc(Nc2ccnc3cc(Cl)ccc23)c1 yielded cytotoxicity at 1 µM of 43

---
cytotoxicity at 1 µM for N#Cc1ccc(CN2CCN(Cc3cc(NC(=O)CN4CCCCC4)cc(Nc4ccnc5cc(Cl)ccc45)c3)CC2)cc1 is 0

Item: O=C(CN1CCCCC1)Nc1cc(CN2CCN(Cc3ccccc3)CC2)cc(Nc2ccnc3cc(Cl)ccc23)c1 | cytotoxicity at 1 µM: 0
